- System: SMARCA2 (Homo sapiens)
- Assay info: MSD SMARCA2 degradation in A549 cell line
- Type: cell-based
- Details: A549, A549 cells, 24 h
# Dmax values compiled below

Please report the recorded Dmax for Cc1ncsc1-c1ccc(CNC(=O)[C@@H]2C[C@@H](O)CN2C(=O)[C@@H](NC(=O)[C@H]2CC3CCC2C[C@@H]3c2cnc(N3C4CCC3CN(c3cc(-c5ccccc5O)nnc3N)C4)nc2)C(C)(C)C)cc1 (some centres unmarked) [I-441] .
> 90%

Returns the measured Dmax for the input molecule. Input: Cc1ncsc1-c1ccc(CNC(=O)[C@@H]2C[C@@H](O)CN2C(=O)[C@@H](NC(=O)C23CCC(CN4CCC(c5cnc(N6C7CCC6CN(c6cc(-c8ccccc8O)nnc6N)C7)nc5)CC4)(CC2)CC3)C(C)(C)C)cc1 [I-425]
> 90%

* * *

- System: SMARCA2 (Homo sapiens)
- Assay info: MSD SMARCA2 degradation in NCI-H1299 cell line (24 h)
- Type: cell-based
- Parameters: HC: NCI-H1299 cells treated with DMSO; host or cells: NCI-H1299
- Details: NCI-H1299 cells, read-out: SMARCA2 MSD H1299 degradation 24 h: External Abs-DC50
# DC50 annotations

The following molecules have reported results that may help.
# Molecule, System, DC50
data = [
    ("Cn1c(=O)n(C2CCC(=O)NC2=O)c2cccc(CCCN3CCCC(c4cnc(N5C6CCC5CN(c5cc(-c7ccccc7O)nnc5N)C6)nc4)C3)c21 (stereo not drawn) [I-292]", "SMARCA2 (Homo sapiens)", "< 100 nM"),
    ("O=C1CCC(N2C(=O)c3cccc(OCCCCc4cn(Cc5cccc(N6C[C@H]7C[C@@H]6CN7/C=C/C(=O)c6ccccc6O)n5)nn4)c3C2=O)C(=O)N1 (stereo partly drawn) [I-37]", "SMARCA2 (Homo sapiens)", "501 to 1000 nM"),
]

With those in mind, consider the next molecule.
DC50 of Cc1ncsc1-c1ccc(CNC(=O)[C@@H]2C[C@@H](O)CN2C(=O)[C@@H](NC(=O)CCCCN2CCC(n3cc(-c4cc(-c5ccccc5O)nnc4N)cn3)CC2)C(C)(C)C)cc1 [I-460] on SMARCA2 (Homo sapiens)?
100 to 500 nM

* * *

- System: SMARCA2 (Homo sapiens, UniProt P51531)
- Sequence (P51531 whole entry): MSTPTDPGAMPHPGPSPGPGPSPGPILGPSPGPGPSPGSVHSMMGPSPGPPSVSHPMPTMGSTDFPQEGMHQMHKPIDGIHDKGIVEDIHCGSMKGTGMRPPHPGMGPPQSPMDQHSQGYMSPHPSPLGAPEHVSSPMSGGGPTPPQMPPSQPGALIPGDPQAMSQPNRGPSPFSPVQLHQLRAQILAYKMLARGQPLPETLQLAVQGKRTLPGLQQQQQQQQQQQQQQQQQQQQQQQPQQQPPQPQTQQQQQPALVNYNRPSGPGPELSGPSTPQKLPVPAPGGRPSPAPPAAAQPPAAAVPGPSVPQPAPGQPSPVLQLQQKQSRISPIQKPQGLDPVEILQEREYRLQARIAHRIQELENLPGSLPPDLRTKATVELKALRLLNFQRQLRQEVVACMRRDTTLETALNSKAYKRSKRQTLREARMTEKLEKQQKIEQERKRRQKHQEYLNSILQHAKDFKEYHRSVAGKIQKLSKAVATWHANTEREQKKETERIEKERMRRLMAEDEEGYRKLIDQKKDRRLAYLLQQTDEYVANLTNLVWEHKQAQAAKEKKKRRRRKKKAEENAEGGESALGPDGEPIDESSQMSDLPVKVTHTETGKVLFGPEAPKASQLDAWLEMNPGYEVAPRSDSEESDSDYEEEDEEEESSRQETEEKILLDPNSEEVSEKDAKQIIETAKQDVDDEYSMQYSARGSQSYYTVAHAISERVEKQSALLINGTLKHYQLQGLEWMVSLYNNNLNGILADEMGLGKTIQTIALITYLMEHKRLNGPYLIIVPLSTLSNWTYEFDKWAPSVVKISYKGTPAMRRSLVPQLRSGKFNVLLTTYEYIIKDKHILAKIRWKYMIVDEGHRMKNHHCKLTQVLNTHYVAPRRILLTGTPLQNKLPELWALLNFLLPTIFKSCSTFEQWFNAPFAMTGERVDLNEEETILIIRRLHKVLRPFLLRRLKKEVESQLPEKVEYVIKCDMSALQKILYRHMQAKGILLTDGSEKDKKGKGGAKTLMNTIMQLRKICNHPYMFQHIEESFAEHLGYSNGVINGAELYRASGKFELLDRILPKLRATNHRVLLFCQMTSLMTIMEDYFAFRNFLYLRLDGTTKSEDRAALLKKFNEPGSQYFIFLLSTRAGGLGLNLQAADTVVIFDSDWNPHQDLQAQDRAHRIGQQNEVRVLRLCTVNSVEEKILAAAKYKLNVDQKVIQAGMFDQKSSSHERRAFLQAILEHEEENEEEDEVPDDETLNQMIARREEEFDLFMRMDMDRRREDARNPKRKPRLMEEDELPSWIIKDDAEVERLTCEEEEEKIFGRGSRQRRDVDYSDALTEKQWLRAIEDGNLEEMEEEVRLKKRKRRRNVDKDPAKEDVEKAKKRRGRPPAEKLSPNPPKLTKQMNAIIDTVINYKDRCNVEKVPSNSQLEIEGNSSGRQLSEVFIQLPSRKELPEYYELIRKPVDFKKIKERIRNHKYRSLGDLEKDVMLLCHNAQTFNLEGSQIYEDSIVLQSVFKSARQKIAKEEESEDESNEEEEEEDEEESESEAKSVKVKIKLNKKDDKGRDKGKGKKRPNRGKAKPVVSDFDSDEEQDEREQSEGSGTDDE
- Assay info: MSD SMARCA2 degradation in NCI-H1299 cell line (24 h)
- Type: cell-based
- Parameters: HC: NCI-H1299 cells treated with DMSO; host or cells: NCI-H1299
- Details: NCI-H1299 cells, read-out: SMARCA2 MSD H1299 degradation 24 h: External Abs-DC50
Recorded metric: DC50

# Compound, Recorded result
rows = [
    ("Cn1c(=O)n(C2CCC(=O)NC2=O)c2ccc(CCN3CCN(Cc4cnc(N5C6CCC5CN(c5cc(-c7ccccc7O)nnc5N)C6)nc4)CC3)cc21 (stereo not drawn)", "< 100 nM"),
    ("CN[C@@H](C)C(=O)N[C@H](C(=O)N1CCC[C@H]1c1nc(C(=O)c2cccc(OCCOCCOCCNCc3ccc(-c4cc(-c5ccccc5O)nnc4N)cc3)c2)cs1)C1CCCCC1", "> 1000 nM"),
    ("Cc1ncsc1-c1ccc(CNC(=O)[C@@H]2C[C@@H](O)CN2C(=O)[C@@H](NC(=O)CCCN2CCC(Cn3cc(-c4cc(-c5ccccc5O)nnc4N)cn3)CC2)C(C)(C)C)cc1", "100 to 500 nM"),
    ("Cn1c(=O)n(C2CCC(=O)NC2=O)c2ccc(C#CCCNC(=O)Cc3cnc(N4C5CCC4CN(c4cc(-c6ccccc6O)nnc4N)C5)nc3)cc21 (stereo not drawn)", "> 1000 nM"),
    ("Cn1c(=O)n(C2CCC(=O)NC2=O)c2cccc(CCCNCc3cn(Cc4cccc(N5C[C@H]6C[C@@H]5CN6/C=C/C(=O)c5ccccc5O)n4)nn3)c21 (stereo partly drawn)", "> 1000 nM"),
]

Now for another entry.
Given the compound CC(c1ccc(C(=O)NCCOCCOCCOCCOCCOCCNc2cccc3c2C(=O)N(C2CCC(=O)NC2=O)C3=O)cc1)n1cc(-c2cc(-c3ccccc3O)nnc2N)cn1 (stereo not drawn) , what is its reported DC50?
> 1000 nM

* * *

The compounds listed here are annotated with their Dmax.
- System: SMARCA2 (Homo sapiens)
- Assay info: MSD SMARCA2 degradation in A549 cell line
- Format: cell-based
- Details: A549, A549 cells, 24 h

Guide cases for Dmax, answers given:
# Compound, System, Dmax
rows = [
    ("Cc1ncsc1-c1ccc(CNC(=O)[C@@H]2C[C@@H](O)CN2C(=O)[C@@H](NC(=O)CCCCCNCc2ccc(C#Cc3cc(NC(=O)Nc4cc(F)ncc4CO)ccn3)cc2)C(C)(C)C)cc1 [I-493]", "SMARCA2 (Homo sapiens)", "< 50%"),
    ("Cc1ncsc1-c1ccc(CNC(=O)[C@@H]2C[C@@H](O)CN2C(=O)[C@@H](NC(=O)CCCN2CCC(c3cccc(C#Cc4cc(NC(=O)Nc5cc(F)ncc5CO)ccn4)c3)CC2)C(C)(C)C)cc1 [I-499]", "SMARCA2 (Homo sapiens)", "< 50%"),
    ("CN(Cc1ccc(C#Cc2cc(NC(=O)Nc3cc(F)ncc3CO)ccn2)cc1)C1CCN(C(=O)c2cccc3c2n(C)c(=O)n3C2CCC(=O)NC2=O)CC1 (centres unmarked) [I-311]", "SMARCA2 (Homo sapiens)", "< 50%"),
    ("Cc1ncsc1-c1ccc(CNC(=O)[C@@H]2C[C@@H](O)CN2C(=O)[C@@H](NC(=O)C[C@H]2CC[C@@H](c3nccc(N4C5CCC4CN(c4cc(-c6ccccc6O)nnc4N)C5)n3)CC2)C(C)(C)C)cc1 [I-365]", "SMARCA2 (Homo sapiens)", "> 90%"),
]

// below: Dmax requested for another compound
# lookup: Dmax of Cc1ncsc1-c1ccc(CNC(=O)[C@@H]2C[C@@H](O)CN2C(=O)[C@@H](NC(=O)C2CC3(C2)CC(N(C)Cc2cnc(N4C5CCC4CN(c4cc(-c6ccccc6O)nnc4N)C5)nc2)C3)C(C)(C)C)cc1 (some centres unmarked) [I-416]
> 90%

* * *

- System: SMARCA4 (Homo sapiens, UniProt P51532)
- Construct: SMARCA2 and SMARCA4 protein degradation in MV4-11 cells; endogenous in cells; host or cells: MV4-11
- Sequence (P51532 whole entry): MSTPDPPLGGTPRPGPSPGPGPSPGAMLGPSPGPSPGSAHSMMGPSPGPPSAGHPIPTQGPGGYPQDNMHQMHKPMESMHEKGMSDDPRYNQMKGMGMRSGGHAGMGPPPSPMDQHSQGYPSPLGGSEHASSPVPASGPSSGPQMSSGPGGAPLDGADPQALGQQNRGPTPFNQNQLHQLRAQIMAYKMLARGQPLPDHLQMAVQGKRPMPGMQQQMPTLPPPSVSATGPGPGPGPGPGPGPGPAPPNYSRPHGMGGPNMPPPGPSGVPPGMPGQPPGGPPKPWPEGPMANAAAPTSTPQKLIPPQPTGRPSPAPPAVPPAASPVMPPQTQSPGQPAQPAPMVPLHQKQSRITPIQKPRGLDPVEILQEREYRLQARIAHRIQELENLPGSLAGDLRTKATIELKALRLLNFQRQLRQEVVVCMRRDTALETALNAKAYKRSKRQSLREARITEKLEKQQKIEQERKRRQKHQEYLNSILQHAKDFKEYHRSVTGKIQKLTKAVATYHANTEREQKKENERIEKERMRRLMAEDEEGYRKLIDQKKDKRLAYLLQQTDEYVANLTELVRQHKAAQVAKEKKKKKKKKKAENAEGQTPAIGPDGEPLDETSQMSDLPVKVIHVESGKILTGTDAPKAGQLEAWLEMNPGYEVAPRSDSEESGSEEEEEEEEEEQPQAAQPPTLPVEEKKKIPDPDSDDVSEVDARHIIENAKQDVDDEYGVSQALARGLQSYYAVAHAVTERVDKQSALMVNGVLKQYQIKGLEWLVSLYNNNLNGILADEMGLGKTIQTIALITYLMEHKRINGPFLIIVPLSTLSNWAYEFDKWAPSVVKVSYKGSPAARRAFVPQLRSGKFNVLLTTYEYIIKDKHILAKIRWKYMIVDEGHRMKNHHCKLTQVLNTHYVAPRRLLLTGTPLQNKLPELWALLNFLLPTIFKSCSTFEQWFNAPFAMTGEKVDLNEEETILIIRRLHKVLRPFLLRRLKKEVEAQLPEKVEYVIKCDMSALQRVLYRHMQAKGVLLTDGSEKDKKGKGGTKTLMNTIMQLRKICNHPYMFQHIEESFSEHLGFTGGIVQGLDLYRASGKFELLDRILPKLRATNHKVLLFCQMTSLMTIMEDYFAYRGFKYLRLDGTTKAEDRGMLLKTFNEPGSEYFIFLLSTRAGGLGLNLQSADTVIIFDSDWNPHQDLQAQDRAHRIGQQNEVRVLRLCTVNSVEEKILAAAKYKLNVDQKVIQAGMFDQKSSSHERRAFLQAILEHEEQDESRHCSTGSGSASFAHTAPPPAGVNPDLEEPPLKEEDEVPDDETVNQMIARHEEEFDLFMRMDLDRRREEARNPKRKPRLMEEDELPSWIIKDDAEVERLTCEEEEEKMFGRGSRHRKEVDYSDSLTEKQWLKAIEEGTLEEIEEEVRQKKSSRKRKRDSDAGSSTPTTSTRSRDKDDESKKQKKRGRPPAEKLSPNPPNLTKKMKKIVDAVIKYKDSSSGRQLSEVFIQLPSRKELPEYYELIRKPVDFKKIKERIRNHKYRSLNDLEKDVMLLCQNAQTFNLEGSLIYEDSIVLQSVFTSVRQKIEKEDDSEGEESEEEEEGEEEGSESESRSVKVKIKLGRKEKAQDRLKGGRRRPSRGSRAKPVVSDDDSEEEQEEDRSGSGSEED
- Assay info: SMARCA4 Western blot MV4-11 degradation
- Format: cell-based
- Details: MV4-11 cells, 24 h, read-out: SMARCA4 WB MV411 degradation 24 h: Average external-Abs DC50
Below, each entry is listed alongside its reported DC50.

Consider the reported DC50 for these molecules:
# Molecule, System, Recorded metric, Recorded result
records = [
    ("CN(Cc1cnc(N2C3CCC2CN(c2cc(-c4ccccc4O)nnc2N)C3)nc1)CC1CCN(c2ccc3c(c2)n(C)c(=O)n3C2CCC(=O)NC2=O)CC1 (stereo not drawn)", "SMARCA4 (Homo sapiens, UniProt P51532)", "DC50", "< 100 nM"),
    ("Cc1ncsc1-c1ccc(CNC(=O)[C@@H]2C[C@@H](O)CN2C(=O)[C@@H](NC(=O)CCCN2CCCC(n3cc(-c4cc(-c5ccccc5O)nnc4N)cn3)C2)C(C)(C)C)cc1 (stereo partly drawn)", "SMARCA4 (Homo sapiens, UniProt P51532)", "DC50", "> 1000 nM"),
]

Kindly review the next molecule as well.
Please give the measured DC50 for this molecule: `Cc1ncsc1-c1ccc(CNC(=O)[C@@H]2C[C@@H](O)CN2C(=O)[C@@H](NC(=O)[C@H]2C[C@@H](N3CCC(n4cc(-c5cc(-c6ccccc6O)nnc5N)cn4)CC3)C2)C(C)(C)C)cc1`
100 to 500 nM

* * *

- System: SMARCA2 (Homo sapiens, UniProt P51531)
- Assay info: MSD SMARCA2 degradation in A549 cell line
- Type: cell-based
- Details: A549 cells
Recorded metric: SMARCA2 MSD A549 degradation 24 h: Average Dmax %

# Compound, Recorded result
rows = [
    ("Cc1ncsc1-c1ccc(CNC(=O)[C@@H]2C[C@@H](O)CN2C(=O)[C@@H](NC(=O)[C@H]2CC3(C2)C[C@H](N2CCC(c4cnc(N5C6CCC5CN(c5cc(-c7ccccc7O)nnc5N)C6)nc4)CC2)C3)C(C)(C)C)cc1 (stereo partly shown)", "A (A (>90% degradation))"),
    ("Cc1ncsc1-c1ccc(CNC(=O)[C@@H]2C[C@@H](O)CN2C(=O)[C@@H](NC(=O)[C@H]2C[C@]3(C2)C[C@H](c2cnc(N4C5CCC4CN(c4cc(-c6ccccc6O)nnc4N)C5)nc2)C3)C(C)(C)C)c(C(F)(F)F)c1 (stereo partly shown)", "A (A (>90% degradation))"),
    ("Cc1ncsc1-c1ccc(CNC(=O)[C@@H]2C[C@@H](O)CN2C(=O)[C@@H](NC(=O)[C@H]2C[C@@]3(C2)C[C@H](c2ccc(CN4CCC(Cn5cc(-c6cc(-c7ccccc7O)nnc6N)cn5)CC4)cc2)C3)C(C)(C)C)cc1 (stereo partly shown)", "A (A (>90% degradation))"),
]
